- experimentSummary: soluble on expression in E. coli; label from the status in PepcDB or PDB records
propertyMeasured: soluble on expression in E. coli

>>> obsvalue("SSESIRMVLIGPPGAGKGTQAPNLQERFHAAHLATGDMLRSQIAKGTQLGLEAKKIMDQGGLVSDDIMVNMIKDELTNNPACKNGFILVGFPRTIPQAEKLDQMLKEQGTPLEKAIELKVDDELLVARITGRLIHPASGRSYHKIFNPPKEDMKDDVTGEALVQISDDNADALKKRLAAYHAQTEPIVDFYKKTGIWAGVDASQPPATVWADILNKLGKN")
"soluble"
>>> obsvalue("MSKVIIPKIVGHRGVGKEGLAPENTLRSFVLCMERNIPYIETDLRVCKTGEIVLFHGTPEGTIPFYKDGTSRIGDLSLEELKRLDVGGGHTIPSLEELFVAIEEQKFNLKLNLELKGEEWKRKESGDHQRLLLLVEKYHMQERVDYCSFHHEALAHLKALCPDVKITYLFNYMGQPTPLDFVEQTQKACYGDANGVSMLFHYLTKEQVCTAHEKGLSVTVWMPWIFDDSEEDWKKCLELQVDLICSNYPFGLMNFLSNISE")
"soluble"

---

- experimentSummary: soluble on expression in E. coli; label from the status in PepcDB or PDB records
propertyMeasured: soluble on expression in E. coli

>>> obsvalue("MSLGTVTITEMDCVDGVHRIGVATLDNTPSLNALTFDMLLQLHDQLIKWQHDPHVVCVVLSGAGEKAFCAGGDVRAMYHVMHNESKEATVEFCTKYFALEYECDYLIHTYNKPIIGWGEGIVMGGGMGLFMGTSHKVVTPISRLAMPEINIGLYPDVGGTWFLSQIDPEVGLFLGLTGALVNSSDAVTTGLADWLLLEEQYPTLLKELQKVPWGTSGAKELVSALLALLEEQIIDSKPTTQICPHLEQIKEACKGVDLNLIAQRIMAMEDSSPWIAGAKETFSSGSPITAHICFRQVKEYHRLPLADCFRLELSLSVRCALLGEFEEGVRARLIDRDGEPNWMFKTVSEVDEDVIDLLFTSLWADAEHPLAKLGEGHHHHHH")
"soluble"
>>> obsvalue("STEDLLTYTLDEAERLTGSTLGFFDLISDDQSIMRSACSSNAKKDNCGHARHPIVINFKAPADVLQKKRAIIHNDHATLRHCNSKSVSHKEAIRELIVPVIRNGKVMAILEVGNKPANYDQNDIQLLNELSGVAWDIIARKHAEDSAQKTMK")
"not soluble"
>>> obsvalue("GMSAPEDWNSQVIQEFRANGGRVGGNFEGAPMVLVHHVGRKTGKAAVTPMMYLPSDDDPGTIYVFASKAGAASNPAWYYNLTTAGTAQVEVGTETYAVGVTEVTGEDRDRIYSEQARRYPGFADYEKKTAGIRTIPVLALTRT")
"soluble"
>>> obsvalue("MGSDKIHHHHHHMMISLYSAATGMSAQQFKLDTIANNLANVDTTGYKKVRAEFQDLLYQYVKNAGTPTAATSSLPTGLYVGHGVRTAATTRIFTLGNFEQTGNALDLAIAGDGFFQIQLQDGRIAYTRDGSFKMDSEGRIVTSNGLLLVPEITIPENAVSINVSPDGIVSAELQDGTIQELGTITLVRFVNPSGLKSIGDNLYIATPASGDPIEGVPGQDGFGAIKQGFLEKSNVDVVREMVDMITAQRAYEFNSRVIQTADEMLRTATNVKR")
"not soluble"
